Tested on: HMPV clinical isolate TN/1501/A1
MEASUREMENT NOTES: HMPV antiviral assay Method-B (clinical isolate TN/1501/A1 in LLC-MK2 cells, ATP-Lite readout)
Type: cell-based, Human metapneumovirus (HMPV)
CONDITIONS USED: human metapneumovirus, LLC-MK2, 144 h, hMPV WT1501 (clinical isolate TN/1501/A1), 6 days
EXPERIMENTAL ENDPOINT: EC50

Here is how some molecules turned out for EC50.
C[C@]1(C(N)=O)COc2c1cc([C@@](O)(CNC(=O)c1cc(F)c3nn(C4CC4)cc3c1)C(F)(F)F)nc2-c1ccc2c(c1)OC(F)(F)O2 [Example 544]
< 500 nM
C[C@]1(C(N)=O)COc2c1cc([C@@](O)(CNC(=O)c1cc(Cl)c3nn(C4CC4)cc3c1)C1CC1)nc2-c1cccc(Br)c1F [Example 1099]
< 500 nM
COc1cc(C(=O)NC[C@](O)(c2cc3c(c(-c4ccc(F)c(F)c4Cl)n2)OC[C@]3(C)C(N)=O)C2CC2)cc2cc(Br)c(C)nc12 [Example 1184]
< 500 nM
C[C@]1(C(N)=O)COc2c1cc([C@@](O)(CNC(=O)c1cc(OC3CC3)c3nn(C4(F)CC4)cc3c1)C1CC1)nc2-c1ccc2c(c1)OC(F)(F)O2 [Example 846]
< 500 nM
COc1cc(C(=O)NC[C@](O)(c2cc3c(c(-c4ccc5c(c4)OC(F)(F)O5)n2)OC[C@]3(C)C(N)=O)C2(F)CC2)cc2cc(C3CC3)nn12 [Example 716]
< 500 nM

Q: Data request, read-out EC50, for COc1cc(C(=O)NC[C@](O)(c2cc3c(c(-c4ccc5cn(C(F)F)nc5c4)n2)OC[C@]3(C)C(N)=O)C(F)(F)F)cc2cn(C3CC3)nc12 [Example 941]
Result: > 500 nM

Q: Data request, read-out EC50, for Cc1cnc2c(OC(F)F)cc(C(=O)NC[C@](O)(c3cc4c(c(-c5ccc(F)c(F)c5F)n3)OC[C@]4(C)C(N)=O)C3CC3)cc2c1 [Example 527]
Result: < 500 nM

Q: Data request, read-out EC50, for COc1cc(C(=O)NC[C@](O)(c2cc3c(c(-c4ccc(F)cc4)n2)OC[C@@]3(CF)C(N)=O)C2CC2)cc2cc(Cl)c(C)nc12 [Example 1055]
Result: > 500 nM

Q: Data request, read-out EC50, for C[C@]1(C(N)=O)COc2c1cc([C@@](O)(CNC(=O)c1ccc3nn(C4CC4)cc3c1)C1CC1)nc2-c1cc(Br)c(F)cc1F [Example 1095]
Result: < 500 nM

====

Tested on: HMPV clinical isolate TN/1501/A1
MEASUREMENT NOTES: HMPV antiviral assay Method-B (clinical isolate TN/1501/A1 in LLC-MK2 cells, ATP-Lite readout)
Format: cell-based, Human metapneumovirus (HMPV)
CONDITIONS USED: human metapneumovirus, LLC-MK2, 144 h, hMPV WT1501 (clinical isolate TN/1501/A1), 6 days
EXPERIMENTAL ENDPOINT: EC50

Here is how some molecules turned out for EC50.
C[C@]1(C(N)=O)COc2c1cc([C@@](O)(CNC(=O)c1cc(OC3CC3)c3nn(C4(F)CC4)cc3c1)C(F)(F)F)nc2-c1csc2c(F)cccc12 [Example 605]
< 500 nM
COc1cc(C(=O)NC[C@](O)(c2cc3c(c(-c4csc5c(F)cccc45)n2)OC[C@]3(C)C(N)=O)C2CC2)cc2cn(C3(F)CC3)nc12 [Example 604]
< 500 nM
Cc1cnc2c(OC(F)F)cc(C(=O)NC[C@](O)(c3cc4c(c(-c5ccc(F)c(F)c5Cl)n3)OC[C@]4(C)C(N)=O)C(F)(F)F)cc2c1 [Example 781]
< 500 nM
COc1cc(C(=O)NC[C@](O)(c2cc3c(c(-c4ccc(F)cc4Cl)n2)OC[C@]3(C)C(N)=O)C2(F)CC2)cc2cc(Cl)c(C)nc12 [Example 734]
< 500 nM
COc1cc(C(=O)NC[C@](O)(c2cc3c(c(-c4c(F)cc(F)cc4F)n2)OC[C@]3(C)C(N)=O)C(F)(F)F)cc2cn(C3CC3)nc12 [Example 997]
< 500 nM
COc1cc(C(=O)NC[C@](O)(c2cc3c(c(-c4cc(Cl)c(F)cc4F)n2)OC[C@]3(C)C(N)=O)C2(F)CC2)cc2cn(C(F)F)nc12 [Example 766]
< 500 nM

Q: Data request, read-out EC50, for Cc1cnc2c(OC(F)F)cc(C(=O)NC[C@](O)(c3cc4c(c(-c5ccc(F)c(Cl)c5)n3)OC[C@]4(C)C(N)=O)C3(F)CC3)cc2c1 [Example 715]
Result: < 500 nM

Q: Data request, read-out EC50, for COc1cc(C(=O)NC[C@](O)(c2nc(-c3cc(Cl)c(F)cc3F)c3c(c2F)[C@](C)(C(N)=O)CO3)C2CC2)cc2cn(C3CC3)nc12 [Example 868]
Result: > 500 nM

Q: Data request, read-out EC50, for COc1cc(C(=O)NC[C@](O)(c2cc3c(c(-c4ccc(F)c(F)c4F)n2)OC[C@]3(C)C(N)=O)C(F)(F)F)cc2cc(C(F)(F)F)cnc12 [Example 512]
Result: > 500 nM

Q: Data request, read-out EC50, for COc1cc(C(=O)NC[C@](O)(c2cc3c(c(-c4ccc(F)c(F)c4F)n2)OC[C@]3(C)C(N)=O)C(F)(F)F)cc2cn(C3(F)CC3)nc12 [Example 522]
Result: < 500 nM

====

Test system: HMPV clinical isolate TN/1501/A1
MEASUREMENT NOTES: HMPV antiviral assay Method-B (clinical isolate TN/1501/A1 in LLC-MK2 cells, ATP-Lite readout)
Assay type: cell-based, Human metapneumovirus (HMPV)
CONDITIONS USED: human metapneumovirus, LLC-MK2, 144 h, hMPV WT1501 (clinical isolate TN/1501/A1), 6 days
The following compounds are listed with their measured EC50 values.

Here is how some compounds turned out for EC50.
COc1cc(C(=O)NC[C@](O)(c2cc3c(c(-c4ccc5c(c4)CCC5)n2)OC[C@]3(C)C(N)=O)C(F)(F)F)cc2cn(C3CC3)nc12
> 500 nM
COc1cc(C(=O)NC[C@](O)(c2cc3c(c(-c4ccc(C(F)(F)F)cc4)n2)OC[C@]3(C)C(N)=O)C2CC2)cc2cn(C3CC3)nc12
< 500 nM
COc1cc(C(=O)NC[C@](O)(c2cc3c(c(-c4ccc(F)cc4)n2)OC[C@]3(C)C(N)=O)C(F)(F)F)cc2nn(C3CC3)cc12
> 500 nM
Cc1cnc2c(OC(F)F)cc(C(=O)NC[C@](O)(c3cc4c(c(-c5ccc(F)c(Cl)c5)n3)OC[C@]4(C(N)=O)C(F)F)C3CC3)cc2c1
> 500 nM
COc1cc(C(=O)NC[C@](O)(c2cc3c(c(-c4csc5c(F)cccc45)n2)OC[C@]3(C)C(N)=O)C(F)(F)F)cc2cn(C3CC3)nc12
< 500 nM

Kindly review the next compound as well.
Q: Data request, read-out EC50, for Cc1cnc2c(Cl)cc(C(=O)NC[C@](O)(c3cc4c(c(-c5ccc(F)c(F)c5Cl)n3)OC[C@]4(C)C(N)=O)C3CC3)cc2c1
Result: < 500 nM
